This collection of values is drawn from ChEMBL document CHEMBL3286359.

Target Or System: Metabotropic glutamate receptor 3 (Rattus norvegicus) (UniProt P31422)
Sequence (P31422 23-879 limits assumed): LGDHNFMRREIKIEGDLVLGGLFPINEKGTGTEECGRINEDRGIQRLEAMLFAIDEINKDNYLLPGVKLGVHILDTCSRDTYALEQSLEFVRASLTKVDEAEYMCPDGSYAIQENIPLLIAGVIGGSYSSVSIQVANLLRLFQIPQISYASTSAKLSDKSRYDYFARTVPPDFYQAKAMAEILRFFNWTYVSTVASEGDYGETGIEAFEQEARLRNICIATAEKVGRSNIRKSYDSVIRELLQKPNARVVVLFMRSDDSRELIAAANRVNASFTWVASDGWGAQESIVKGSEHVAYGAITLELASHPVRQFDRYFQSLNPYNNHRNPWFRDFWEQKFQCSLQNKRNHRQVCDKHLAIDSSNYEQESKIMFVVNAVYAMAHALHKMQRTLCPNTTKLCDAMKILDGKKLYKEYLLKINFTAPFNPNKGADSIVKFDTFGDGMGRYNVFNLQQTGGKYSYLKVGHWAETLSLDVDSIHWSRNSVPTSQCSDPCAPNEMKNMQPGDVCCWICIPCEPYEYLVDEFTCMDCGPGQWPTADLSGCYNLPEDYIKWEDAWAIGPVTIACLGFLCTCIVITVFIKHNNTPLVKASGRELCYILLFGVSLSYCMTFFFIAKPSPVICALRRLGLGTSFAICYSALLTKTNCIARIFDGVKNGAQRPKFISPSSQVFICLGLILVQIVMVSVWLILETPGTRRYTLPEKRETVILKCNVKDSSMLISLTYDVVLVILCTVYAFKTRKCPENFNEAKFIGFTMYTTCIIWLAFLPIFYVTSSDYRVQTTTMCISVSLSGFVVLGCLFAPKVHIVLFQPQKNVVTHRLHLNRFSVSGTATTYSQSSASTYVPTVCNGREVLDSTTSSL
Method Description: Inhibition of rat mGlu3 receptor transfected in HEK293 cells coexpressing mouse Galpha15 assessed as decrease in glutamate-induced calcium signaling at 3 uM by fluorescence plate reader analysis in presence of glutamate at EC87 concentration
Type: functional, cell-based
Readout Type: inhibition (%)

# example entries with known answers
>>> df
                                smiles_data  unit_name  result_number
0  Cn1c(=O)c2ccc(-c3ccccc3)cc2n2nc(-c3cccc(Cl)c3)cc12          %             19
1  O=c1[nH]c2cc(-c3ccccc3)nn2c2cc(-c3ccccc3)ccc12          %              6
2  Cn1c(=O)c2ccc(-c3ccccc3)cc2n2nc(-c3cccc(Br)c3)cc12          %             28

(P) Cn1c(=O)c2ccc(-c3ccc4nccnc4c3)cc2n2nc(-c3ccccc3)cc12
(Q) Cn1c(=O)c2ccc(-c3ccccc3)cc2n2nc(-c3cccc(F)c3)cc12
(R) O=c1[nH]c2cc(-c3ccccc3)nn2c2cc(-c3cccnc3)ccc12
(S) Cn1c(=O)c2ccc(-c3ccccc3)cc2n2nc(-c3ccc(F)cc3)cc12
(T) COc1ccc(-c2ccc3c(=O)n(C)c4cc(-c5cccc(Br)c5)nn4c3c2)cc1
Provide the items ranked by increasing inhibition. API: response body holds the labels in the requested order.
R, P, T, Q, S
(R: 8%, P: 16%, T: 23%, Q: 39%, S: 64%)
